The origin of these recorded values is paper PMC11996864.

- experiment.notes: In vivo pharmacokinetics, plasma LC-MS/MS
- measurement.context: male, CD-1, mouse, plasma, ip, 20 mg/kg, IP; 1 hours; read-out: Plasma concentration (IP)

# molecule, unit.spec, concentration at 1 h
rows = [
    ("O=S(=O)(NCc1ccc2c(c1)OCO2)c1ccc(Cc2ccc(S(=O)(=O)NCc3ccc4c(c3)OCO4)cc2)cc1 [M1i-124]", "ng/mL", 349),
]

---

- experiment.notes: In vivo pharmacokinetics, plasma LC-MS/MS
- measurement.context: male, CD-1, mouse, in vivo, iv, 5 mg/kg, IV; 4 hours; read-out: Plasma concentration (IV)

# smiles.code, unit.spec, concentration at 4 h
rows = [
    ("O=S(=O)(NCc1ccc2c(c1)OCO2)c1ccc(Cc2ccc(S(=O)(=O)NCc3ccc4c(c3)OCO4)cc2)cc1", "ng/mL", 20.4),
]
